These measurements were taken from patent US11098010B2.

# Test system: HBV rcDNA in HepDE19 cells
# PROCEDURE_DETAILS: HepDE19 assay with bDNA quantitation of HBV rcDNA
# Format: cell-based, hepatitis B virus (HBV)
# PROTOCOL_CONDITIONS: Hepatitis B virus, HepDE19, 168 h, read-out: DE-19 bDNA EC50 (μM), HepDE19 cells, inhibition of rcDNA formation, 7 day incubation, top concentration 25 μM
Counter-ions that a name gives are not always drawn.
In this section we review reported EC50 values for a set of compounds.
State just the number; it will be interpreted in µM.

COc1ccc(COC(=O)N[C@H]2CCc3c(C(=O)Nc4ccc(F)c(Cl)c4)ccc(F)c32)nc1 [Compound 107, Hydrochloride]    1.2
CC(=O)NCCOC(=O)N[C@H]1CCc2c(C(=O)Nc3ccc(F)c(Cl)c3)ccc(F)c21    0.26
O=C1CC[C@H](COC(=O)N[C@H]2CCc3c(C(=O)Nc4ccc(F)c(Cl)c4)cccc32)N1    0.58
CN1C(=O)CC[C@@H]1COC(=O)N[C@H]1CCc2c(C(=O)Nc3ccc(F)c(Cl)c3)ccc(F)c21    0.54
O=C(Nc1ccc(F)c(Cl)c1)c1ccc(F)c2c1CC[C@@H]2Nc1nccc(-c2ccccn2)n1    1

Below: the item to evaluate.
# compound `O=C(N[C@H]1CCc2c(C(=O)Nc3ccc(F)c(Cl)c3)ccc(F)c21)OCCN1CCOCC1` ; its EC50 = 0.47

----------
# System: HBV rcDNA in HepDE19 cells
# PROCEDURE_DETAILS: HepDE19 assay with bDNA quantitation of HBV rcDNA
# Type: cell-based, hepatitis B virus (HBV)
# PROTOCOL_CONDITIONS: Hepatitis B virus, HepDE19, 168 h, read-out: DE-19 bDNA EC50 (μM), HepDE19 cells, inhibition of rcDNA formation, 7 day incubation, top concentration 25 μM
Where a name gives a salt, the structure may show the parent alone.
OBSERVATION_TYPE: EC50

O=C(NCc1ccccn1)N[C@H]1CCc2c(C(=O)Nc3ccc(F)c(Cl)c3)ccc(F)c21 [Compound 149, Hydrochloride]    0.21 µM
CNC(=O)N[C@H]1CCc2c(C(=O)Nc3ccc(F)c(C)c3)ccc(F)c21    0.38 µM
CC(C)(C)OC(=O)N1CC(F)(F)CC1COC(=O)N[C@H]1CCc2c(C(=O)Nc3ccc(F)c(Cl)c3)ccc(F)c21 (stereo partly shown)    0.99 µM

# molecule O=C(N[C@H]1CCc2c(C(=O)Nc3ccc(F)c(Cl)c3)ccc(F)c21)OC[C@@H]1CCCN1 [Compound 69, Hydrochloride] ; its EC50 = 5.1 µM

# molecule `COC(=O)N[C@@H]1c2cccc(C(=O)Nc3ccc(F)c(Cl)c3)c2C[C@H]1OC` ; its EC50 = 0.1 µM

# molecule `O=C(N[C@H]1CCc2c(C(=O)Nc3ccc(F)c(Cl)c3)ccc(F)c21)OCc1ncn(COP(=O)(O)O)n1` ; its EC50 = 0.12 µM

# molecule Cc1cccn2cc(COC(=O)N[C@H]3CCc4c(C(=O)Nc5ccc(F)c(Cl)c5)ccc(F)c43)nc12 [Compound 87, Hydrochloride] ; its EC50 = 0.2 µM

----------
# Test system: HBV rcDNA in HepDE19 cells
# PROCEDURE_DETAILS: HepDE19 assay with bDNA quantitation of HBV rcDNA
# Type: cell-based, hepatitis B virus (HBV)
# PROTOCOL_CONDITIONS: Hepatitis B virus, HepDE19, 168 h, read-out: DE-19 bDNA EC50 (μM), HepDE19 cells, inhibition of rcDNA formation, 7 day incubation, top concentration 25 μM
Structures can show the parent of a compound that is named as a salt.
OBSERVATION_TYPE: EC50 (µM)
State just the number; it will be interpreted in µM.

Note to self: EC50 of Cn1ccc(CNC(=O)N[C@H]2CCc3c(C(=O)Nc4ccc(F)c(Cl)c4)ccc(F)c32)n1 [Compound 194] with HBV rcDNA in HepDE19 cells was 0.16

Note to self: EC50 of NC(=O)c1ccnc(N[C@H]2CCc3c(C(=O)Nc4ccc(F)c(Cl)c4)ccc(F)c32)n1 [Compound 104] with HBV rcDNA in HepDE19 cells was 0.16

Note to self: EC50 of O=C(N[C@H]1CCc2c(C(=O)Nc3ccc(F)c(Cl)c3)ccc(F)c21)OCc1cc(Cl)ccn1 [Compound 80, Hydrochloride] with HBV rcDNA in HepDE19 cells was 0.33

Note to self: EC50 of N#Cc1ccc(COC(=O)N[C@H]2CCc3c(C(=O)Nc4ccc(F)c(Cl)c4)ccc(F)c32)nc1 [Compound 172] with HBV rcDNA in HepDE19 cells was 0.19

Note to self: EC50 of O=C(N[C@H]1CCc2c(C(=O)Nc3ccc(F)c(Cl)c3)ccc(F)c21)OCc1ncccc1F [Compound 138] with HBV rcDNA in HepDE19 cells was 0.16

Note to self: EC50 of COc1ccc(Cn2ccc3cnc(N[C@H]4CCc5c(C(=O)Nc6ccc(F)c(Cl)c6)ccc(F)c54)nc32)cc1 [Compound 197] with HBV rcDNA in HepDE19 cells was 1.2

Note to self: EC50 of O=C(N[C@H]1CCc2c(C(=O)Nc3ccc(F)c(Cl)c3)ccc(F)c21)OC[C@@H]1CCCO1 [Compound 142] with HBV rcDNA in HepDE19 cells was 0.27

----------
# Test system: HBV rcDNA in HepDE19 cells
# PROCEDURE_DETAILS: HepDE19 assay with bDNA quantitation of HBV rcDNA
# Format: cell-based, hepatitis B virus (HBV)
# PROTOCOL_CONDITIONS: Hepatitis B virus, HepDE19, 168 h, read-out: DE-19 bDNA EC50 (μM), HepDE19 cells, inhibition of rcDNA formation, 7 day incubation, top concentration 25 μM
In this section we review reported EC50 values for a set of molecules.

# molecule `CNC(=O)N[C@@H]1c2cccc(C(=O)Nc3ccc(F)c(Cl)c3)c2C[C@H]1O` ; its EC50 = 11 µM

----------
In this section we review reported EC50 values for a set of compounds.
# Tested on: HBV rcDNA in HepDE19 cells
# PROCEDURE_DETAILS: HepDE19 assay with bDNA quantitation of HBV rcDNA
# Type: cell-based, hepatitis B virus (HBV)
# PROTOCOL_CONDITIONS: Hepatitis B virus, HepDE19, 168 h, read-out: DE-19 bDNA EC50 (μM), HepDE19 cells, inhibition of rcDNA formation, 7 day incubation, top concentration 25 μM
Counter-ions that a name gives are not always drawn.
State just the number; it will be interpreted in µM.

Here is how some compounds turned out for EC50.
O=C(Nc1ccncc1)N[C@H]1CCc2c(C(=O)Nc3ccc(F)c(Cl)c3)ccc(F)c21 [Compound 145]    0.93
O=C1CC[C@@H](COC(=O)N[C@H]2CCc3c(C(=O)Nc4ccc(F)c(Cl)c4)cccc32)N1 [Compound 22]    0.44
Cc1cnc(COC(=O)N[C@H]2CCc3c(C(=O)Nc4ccc(F)c(Cl)c4)ccc(F)c32)cn1 [Compound 152]    0.07
O=C(N[C@H]1CCc2c(C(=O)Nc3ccc(F)c(Cl)c3)ccc(F)c21)OC1CCOCC1 [Compound 113]    0.31
O=C(Nc1ccc(F)c(Cl)c1)c1ccc(F)c2c1CC[C@@H]2Nc1nccs1 [Compound 146]    0.24
O=C(N[C@H]1CCc2c(C(=O)Nc3ccc(F)c(Cl)c3)ccc(F)c21)OCCc1ccccn1 [Compound 83, Hydrochloride]    0.18

# compound COCCCOC(=O)N[C@H]1CCc2c(C(=O)Nc3ccc(F)c(Cl)c3)ccc(F)c21 [Compound 114] ; its EC50 = 0.47

# compound O=C(N[C@H]1CCc2c(C(=O)Nc3ccc(F)c(Cl)c3)ccc(F)c21)OCC1CNC(=O)O1 (stereo partly drawn) [Compound 132] ; its EC50 = 0.22

# compound O=C1CCC[C@H](COC(=O)N[C@H]2CCc3c(C(=O)Nc4ccc(F)c(Cl)c4)ccc(F)c32)N1 [Compound 198] ; its EC50 = 0.22

# compound CC(=O)N1CCC(COC(=O)N[C@H]2CCc3c(C(=O)Nc4ccc(F)c(Cl)c4)ccc(F)c32)CC1 [Compound 174] ; its EC50 = 0.87

# compound COc1cnc(N[C@H]2CCc3c(C(=O)Nc4ccc(F)c(Cl)c4)ccc(F)c32)nc1 [Compound 49] ; its EC50 = 0.17

# compound O=C(Nc1ccc(F)c(Cl)c1)c1ccc(F)c2c1CC[C@@H]2Nc1ccccn1 [Compound 97, Hydrochloride] ; its EC50 = 0.22

# compound O=C(Nc1cccnc1)N[C@H]1CCc2c(C(=O)Nc3ccc(F)c(Cl)c3)ccc(F)c21 [Compound 144] ; its EC50 = 0.85

# compound O=C(N[C@H]1CCc2c(C(=O)Nc3ccc(F)c(Cl)c3)ccc(F)c21)OCC1CCN(CC(F)(F)F)CC1 [Compound 62] ; its EC50 = 1.8

# compound O=C1CC[C@H](COC(=O)N[C@H]2CCc3c(C(=O)Nc4ccc(F)c(Cl)c4)ccc(F)c32)N1 [Compound 9] ; its EC50 = 0.58
